Catalogue of cytotoxicity readings, one per entry.
# TEST_DETAILS: cytotoxicity in HPDE-C7 cells, cell-based, fluorescence, HTS (AID 430);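 also: cells exposed to compound for 48 hours before viability readout; 0% = vehicle and 100% = reference cytotoxic drug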
# APPLIED_CONDITIONS: HPDE-C7 pancreatic duct cells viability, at 10 µM, hits give high values
Screen size: about 63,000 compounds; about 1,100 (1.7%) were called active. The sample as a whole holds a higher share of actives than the screen did. Results with a measured potency or affinity are listed apart.
METRIC: cytotoxicity (%)

• COc1ccc(-n2nnnc2SCC(=O)c2ccc(O)c(O)c2)cc1 = 17.9
• O=S(=O)(/C=C/c1ccccc1)n1cnc2ccccc21 = 22.4
• CC(C)CC(=O)Nc1ccccc1N1CCCC1 = -9.5
• O=C(Nc1cccc(NC(=O)N2CCN(c3ccccc3)CC2)c1)N1CCN(c2ccccc2)CC1 = 56.3
• CN(C)c1nc(SCCOC(=O)Nc2ccccc2)nc(N(C)C)n1 = 19.3
• Cc1cc(C)n(S(=O)(=O)Cc2ccccc2)n1 = -8.3
• CCOC(=O)c1ccc(NC(=O)CN2CCc3ccccc3C2)cc1 = 57.6
• CCOc1ccc(-n2nnnc2SCC(=O)c2ccccc2)cc1 = 59.8
• CCOC(=O)c1ccc(NC(=O)CN2CCN(c3ccccc3)CC2)cc1 = 6
• COc1ccc(CC(=O)NCc2ccccc2Cl)cc1S(=O)(=O)N1CCOCC1 = 1.1
• O=C(CN1CCCCC1)Nc1ccccc1NC(=O)CN1CCCCC1 = -13.4

* * *

# TEST_DETAILS: cytotoxicity in HPDE-C7 cells, cell-based, fluorescence, HTS (AID 430);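 also: cells exposed to compound for 48 hours before viability readout; 0% = vehicle and 100% = reference cytotoxic drug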
# APPLIED_CONDITIONS: HPDE-C7 pancreatic duct cells viability, at 10 µM
The campaign covered roughly 63,000 compounds. About 1,100 (1.7%) were called active. No stated cut-off is given here; in the data, active means cytotoxicity above about 50%; inactive means the rest. The list comes from a sample in which actives are over-represented; it also holds close analogues and randomly drawn compounds. Results with a measured potency or affinity are listed apart.
Outcomes: y for active, n for inactive

• O=C(Cc1ccccc1)N1CCC(C(=O)N2CCN(c3ccc(F)cc3)CC2)CC1 = n
• O=C(CSc1nnnn1Cc1ccccc1)N1CCN(c2ccccc2)CC1 = n
• Cc1cc(=O)[nH]c(/N=C(\N)Nc2cccc3ccccc23)n1 = n
• COCCN(C(=O)Cc1cccs1)c1nnc(-c2cccnc2)s1 = n
• CC(=O)c1cccc(NC(=O)Cc2cccs2)c1 = n
• CCC(C)N(C(=O)COC(=O)c1cn(CC)c2nc(C)ccc2c1=O)C1CCS(=O)(=O)C1 (centres undefined) = n
• O=C(c1cc2sccc2n1Cc1ccccc1)N1CCc2ccccc21 = n
• COc1cccc(OCc2nc3ncc(Br)cc3[nH]2)c1 = y
• O=C(NCCc1ccccc1)C1CCCN1C(=O)Nc1ccc(F)cc1 (centres undefined) = n
• Cc1ccc(C2C(C#N)=C(N)Oc3nc(-c4ccccc4)[nH]c32)o1 (centres undefined) = n
• COCCOC(=O)c1[nH]c2c(c1C)C(=O)CC(c1ccco1)C2 (centres undefined) = y
• O=C1NC(c2cccs2)Nc2ccccc21 (centres undefined) = n
• COc1ccccc1-c1cc(C(F)(F)F)nc(S(=O)(=O)CCCC(=O)N2CCCCC2C)n1 (centres undefined) = y
• Cc1c(C(=O)OCC2CCCO2)[nH]c2c1C(=O)CC(c1ccc(N(C)C)cc1)C2 (centres undefined) = n
• Cc1c(C(=O)OCc2ccccc2)[nH]c2c1C(=O)CC(c1ccco1)C2 (centres undefined) = y
• O=C(Cc1cccs1)Nc1cccc(C(=O)Nc2ccco2)c1 = y
• Cc1ccc(SCc2[nH]nc3c2C(c2ccc(C)o2)C(C#N)=C(N)O3)cc1 (centres undefined) = n
• O=C(NCc1ccccc1)c1cccc(NC(=O)c2ccco2)c1 = n
• COc1cc(C2CC(=O)c3c([nH]c(C(=O)OCCOC(C)C)c3C)C2)cc(OC)c1OC (centres undefined) = n
• COc1ccccc1-c1cc(C(F)(F)F)nc(N2CCCC2)n1 = n
• COc1ccccc1-c1cc(C(F)(F)F)nc(S(=O)(=O)CCCC(=O)NC(C)C)n1 = n
• COc1cccc(OCc2nc3ccccc3[nH]2)c1 = n
• CCOc1ccccc1NC(=O)CSc1nccn1-c1ccccc1 = n
• CC(=O)NC(Cc1c[nH]c2ccccc12)C(=O)N1CCc2ccccc2C1 (centres undefined) = n
• COCCOC(=O)c1[nH]c2c(c1C)C(=O)C(C(=O)OC)C(C)C2 (centres undefined) = n
• NC(=O)COC(=O)c1ccc(S(=O)(=O)N2CCCCCC2)cc1 = n
• O=C(Cc1cccs1)Nc1ccc(NC(=O)c2ccco2)cc1 = n
• CNC(=O)/C(=N\O)c1ccccc1 = n
• COc1cc(C(=O)NCc2nnc(SCC(=O)N3CCC(C)CC3)o2)cc(OC)c1OC = n
• COc1ccc(-c2nnc(NC(=O)c3ccc(S(=O)(=O)N4CCc5ccccc5C4)cc3)o2)cc1 = n
• Cc1c(C(=O)OCCOC(C)C)[nH]c2c1C(=O)CC(c1ccco1)C2 (centres undefined) = y
• COc1ccccc1-c1cc(C(F)(F)F)nc(N2CCN(c3ccccc3)CC2)n1 = n
• Cc1ccc(C2NC(=O)c3ccccc3N2)s1 (centres undefined) = y
• O=C(Nc1ccc(S(=O)(=O)N2CCCc3ccccc32)cc1)C1CCCO1 (centres undefined) = n
• O=C(NCc1ccco1)c1ccc(S(=O)(=O)N2CCCc3ccccc32)cc1 = n
• O=C(NC1CCCc2ccccc21)C1CCCO1 (centres undefined) = n
• CS(=O)(=O)N1CCC(C(=O)NCc2ccc(F)cc2Cl)CC1 = n
• O=C(CN1CCN(c2ccccn2)CC1)Nc1ccc(OCc2ccccc2)cc1 = n
• CC1(C)CC(=O)C2=C(C1)N(CCN1CCOCC1)C1=C(C(=O)CC(C)(C)C1)C2c1cccc(Cl)c1 = n
• COc1ccc(-c2nnc(NC(=O)c3ccc(S(=O)(=O)N4CCCc5ccccc54)cc3)o2)cc1 = y
• O=C(c1cc(F)c(F)cc1Cl)N1CCCCC1 = n
• O=C(Nc1nnc(C2CC2)o1)c1ccc(S(=O)(=O)N2CCCc3ccccc32)cc1 = y
• O=C(c1ccc(Br)s1)N1CCN(Cc2ccc3c(c2)OCO3)CC1 = n
• CC1=C(C(=O)OCc2ccccc2)C(c2ccco2)C2=C(CC(C)(C)CC2=O)N1 (centres undefined) = n

* * *

# TEST_DETAILS: cytotoxicity in HPDE-C7 cells, cell-based, fluorescence, HTS (AID 430);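 also: cells exposed to compound for 48 hours before viability readout; 0% = vehicle and 100% = reference cytotoxic drug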
# APPLIED_CONDITIONS: HPDE-C7 pancreatic duct cells viability, at 10 µM, hits give high values
Out of some 63,000 compounds screened, about 1,100 (1.7%) were called active. The sample as a whole holds a higher share of actives than the screen did. Potency and affinity values are given separately.
With a cut-off of 40%, any cytotoxicity strictly below it is called Yes; any cytotoxicity meeting it or above is called No.

- O=C(Nc1ccc(-c2nc3ccccc3o2)cc1)c1ccc2c(c1)OCO2: Yes
- Cc1ccc2oc(-c3ccc(NC(=O)c4ccc5c(c4)OCO5)cc3)nc2c1: No
- O=C(Nc1ccccc1-c1nc2ccccc2o1)c1ccc2c(c1)OCCO2: No
- O=C(Nc1ccc2oc(-c3cccnc3)nc2c1)c1cccnc1: Yes
- CCOc1ccc2nc(NC(=O)CN3CCC(n4nnc5cc(F)ccc54)CC3)sc2c1: No
- C=CCn1c(SCC(=O)NCCOC)nc2scc(-c3ccco3)c2c1=O: Yes
- CC1(C)OC(=O)N(c2ccccn2)C1(C)O (stereo unspecified): Yes
- COc1ccc(Br)cc1C(=O)Nc1cccc(NC(=O)c2ccco2)c1: No
- COc1ccc(-c2nc3cc(NC(=O)c4ccc5c(c4)OCO5)ccc3o2)cc1: Yes
- COc1ccccc1NC(=O)CN1CCC(n2nnc3cc(F)ccc32)CC1: Yes
- CCOCCCN1CC(C(=O)NCCc2ccccc2)CC1=O (stereo unspecified): Yes

* * *

# TEST_DETAILS: cytotoxicity in HPDE-C7 cells, cell-based, fluorescence, HTS (AID 430);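 also: cells exposed to compound for 48 hours before viability readout; 0% = vehicle and 100% = reference cytotoxic drug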
# APPLIED_CONDITIONS: HPDE-C7 pancreatic duct cells viability, at 10 µM, hits give high values
Hit rate of the full screen: of about 63,000 compounds, about 1,100 (1.7%) were called active. The full list was thinned out, with actives kept by preference. Entries with a potency or affinity are not part of this list.
METRIC: cytotoxicity

• O=C(c1ccccc1)c1coc2ccc(O)c(Cl)c12 = -4.8% (inactive)
• Cc1ccc(C(=O)c2coc3ccc(O)c(CN4CCN(C)CC4)c23)cc1 = -5.9% (inactive)
• N#Cc1cc2c(nc1SCC(=O)NCc1ccc3c(c1)OCO3)CCCCC2 = -27.8% (inactive)
• CN(C)Cc1c(O)ccc2occ(C(=O)c3ccccc3)c12 = 6.4% (inactive)
• Cc1ccc(N2C(N)=NC(N)=NC23CCCC3)c(C)c1 = -2.3% (inactive)
• COc1ccc(C2C3=C(Nc4ncnn42)c2ccccc2CCC3)cc1 (stereo unspecified) = -20.3% (inactive)

Origin of measurements: PubChem BioAssay AID430
